# System: HeLa Kyoto
# assay-details: thermal stability score vs G1/S (z-score of summed log2 fold changes over temperatures); higher = more thermally stable than in G1/S
# measurement-conditions: cell cycle stage: mitosis
Listing of recorded thermal stability score by entry.

{"columns": ["sequence-text", "thermal stability score"],
 "data": [
  ["MSRYLLPLSALGTVAGAAVLLKDYVTGGACPSKATIPGKTVIVTGANTGIGKQTALELARRGGNIILACRDMEKCEAAAKDIRGETLNHHVNARHLDLASLKSIREFAAKIIEEEERVDILINNAGVMRCPHWTTEDGFEMQFGVNHLGHFLLTNLLLDKLKASAPSRIINLSSLAHVAGHIDFDDLNWQTRKYNTKAAYCQSKLAIVLFTKELSRRLQGSGVTVNALHPGVARTELGRHTGIHGSTFSSTTLGPIFWLLVKSPELAAQPSTYLAVAEELADVSGKYFDGLKQKAPAPEAEDEEVARRLWAESARLVGLEAPSVREQPLPR [RDH13]", -0.156],
  ["MALNKNHSEGGGVIVNNTESILMSYDHVELTFNDMKNVPEAFKGTKKGTVYLTPYRVIFLSKGKDAMQSFMMPFYLMKDCEIKQPVFGANYIKGTVKAEAGGGWEGSASYKLTFTAGGAIEFGQRMLQVASQASRGEVPSGAYGYSYMPSGAYVYPPPVANGMYPCPPGYPYPPPPPEFYPGPPMMDGAMGYVQPPPPPYPGPMEPPVSGPDVPSTPAAEAKAAEAAASAYYNPGNPHNVYMPTSQPPPPPYYPPEDKKTQ [WBP2]", -1.41],
  ["MAAGTSSYWEDLRKQARQLENELDLKLVSFSKLCTSYSHSSTRDGRRDRYSSDTTPLLNGSSQDRMFETMAIEIEQLLARLTGVNDKMAEYTNSAGVPSLNAALMHTLQRHRDILQDYTHEFHKTKANFMAIRERENLMGSVRKDIESYKSGSGVNNRRTELFLKEHDHLRNSDRLIEETISIAMATKENMTSQRGMLKSIHSKMNTLANRFPAVNSLIQRINLRKRRDSLILGGVIGICTILLLLYAFH [GOSR1]", -0.667]
]}

* * *

Listing of recorded solubility change mitosis (log2) by entry.
# Tested on: HeLa Kyoto
# assay-details: solubility change mitosis vs G1/S (difference of NP-40 vs SDS log2 ratios) (log2 ratio difference); higher = more soluble in mitosis

{"columns": ["sequence-text", "solubility change mitosis (log2)"],
 "data": [
  ["MADLHRQLQEYLAQGKAGGPAAAEPLLAAEKAEEPGDRPAEEWLGRAGLRWTWARSPAESAAAGLTCLPSVTRGQRLAAGGGCLLLAALCFGLAALYAPVLLLRARKFALLWSLGSALALAGSALLRGGAACGRLLRCEEAPSRPALLYMAALGATLFAALGLRSTLLTVLGAGAQVAALLAALVGLLPWGGGTALRLALGRLGRGAGLAKVLPV [SFT2D3]", -0.136],
  ["MEQPGQDPTSDDVMDSFLEKFQSQPYRGGFHEDQWEKEFEKVPLFMSRAPSEIDPRENPDLACLQSIIFDEERSPEEQAKTYKDEGNDYFKEKDYKKAVISYTEGLKKKCADPDLNAVLYTNRAAAQYYLGNFRSALNDVTAARKLKPCHLKAIIRGALCHLELKHFAEAVNWCDEGLQIDAKEKKLLEMRAKADKLKRIEQRDVRKANLKEKKERNQNEALLQAIKARNIRLSEAACEDEDSASEGLGELFLDGLSTENPHGARLSLDGQGRLSWPVLFLYPEYAQSDFISAFHEDSRFIDHLMVMFGETPSWDLEQKYCPDNLEVYFEDEDRAELYRVPAKSTLLQVLQHQRYFVKALTPAFLVCVGSSPFCKNFLRGRKVYQIR [TTC4]", -0.0862],
  ["MSDAAVDTSSEITTKDLKEKKEVVEEAENGRDAPANGNAENEENGEQEADNEVDEEEEEGGEEEEEEEEGDGEEEDGDEDEEAESATGKRAAEDDEDDDVDTKKQKTDEDD [PTMA]", -0.00535],
  ["MNGPADGEVDYKKKYRNLKRKLKFLIYEHECFQEELRKAQRKLLKVSRDKSFLLDRLLQYENVDEDSSDSDATASSDNSETEGTPKLSDTPAPKRKRSPPLGGAPSPSSLSLPPSTGFPLQASGVPSPYLSSLASSRYPPFPSDYLALQLPEPSPLRPKREKRPRLPRKLKMAVGPPDCPVGGPLTFPGRGSGAGVGTTLTPLPPPKMPPPTILSTVPRQMFSDAGSGDDALDGDDDLVIDIPE [INO80E]", 0.288],
  ["MASILRSPQALQLTLALIKPDAVAHPLILEAVHQQILSNKFLIVRMRELLWRKEDCQRFYREHEGRFFYQRLVEFMASGPIRAYILAHKDAIQLWRTLMGPTRVFRARHVAPDSIRGSFGLTDTRNTTHGSDSVVSASREIAAFFPDFSEQRWYEEEEPQLRCGPVCYSPEGGVHYVAGTGGLGPA [NME6]", 0.636],
  ["MAGARRLELGEALALGSGWRHACHALLYAPDPGMLFGRIPLRYAILMQMRFDGRLGFPGGFVDTQDRSLEDGLNRELREELGEAAAAFRVERTDYRSSHVGSGPRVVAHFYAKRLTLEELLAVEAGATRAKDHGLEVLGLVRVPLYTLRDGVGGLPTFLENSFIGSAREQLLEALQDLGLLQSGSISGLKIPAHH [NUDT16]", -0.184]
]}

* * *

Listing of recorded melting temperature by entry.
# Test system: HeLa Kyoto
# assay-details: melting temperature (median over replicates), in situ; higher = more thermally stable
# measurement-conditions: cell cycle stage: G1/S

{"columns": ["substance", "melting temperature (°C)"],
 "data": [
  ["MATAALLRGATPGRGGPVWRWRLRAAPRCRLAHSSCSPGGDPTAGAAWACFRLDGRTLLRVRGPDAAPFLLGLLTNELPLPSPAAAGAPPAARAGYAHFLNVQGRTLYDVILYGLQEHSEVSGFLLECDSSVQGALQKHLALYRIRRKVTVEPHPELRVWAVLPSSPEACGAASLQERAGAAAILIRDPRTARMGWRLLTQDEGPALVPGGRLGDLWDYHQHRYLQGVPEGVRDLPPGVALPLESNLAFMNGVSFTKGCYIGQELTARTHHMGVIRKRLFPVRFLDPLPTSGITPGATVLTASGQTVGKFRAGQGNVGLALLWSEKIKGPLHIRASEGAQVALAASVPDWWPTVSK [IBA57]", 52.8],
  ["MTPLCPRPALCYHFLTSLLRSAMQNARGARQRAEAAVLSGPGPPLGRAAQHGIPRPLSSAGRLSQGCRGASTVGAAGWKGELPKAGGSPAPGPETPAISPSKRARPAEVGGMQLRFARLSEHATAPTRGSARAAGYDLYSAYDYTIPPMEKAVVKTDIQIALPSGCYGRVAPRSGLAAKHFIDVGAGVIDEDYRGNVGVVLFNFGKEKFEVKKGDRIAQLICERIFYPEIEEVQALDDTERGSGGFGSTGKN [DUT]", 53.2],
  ["MAYAYLFKYIIIGDTGVGKSCLLLQFTDKRFQPVHDLTIGVEFGARMITIDGKQIKLQIWDTAGQESFRSITRSYYRGAAGALLVYDITRRDTFNHLTTWLEDARQHSNSNMVIMLIGNKSDLESRREVKKEEGEAFAREHGLIFMETSAKTASNVEEAFINTAKEIYEKIQEGVFDINNEANGIKIGPQHAATNATHAGNQGGQQAGGGCC [RAB2A]", 59.9],
  ["ZWILCH", 50.9]
]}

* * *

Listing of recorded solubility in G1/S (log2) by entry.
# System: HeLa Kyoto
# assay-details: solubility in G1/S (NP-40 vs SDS abundance) (log2 ratio); higher = more soluble
# measurement-conditions: cell cycle stage: G1/S

{"columns": ["sequence-text", "solubility in G1/S (log2)"],
 "data": [
  ["MVVFGYEAGTKPRDSGVVPVGTEEAPKVFKMAASMHGQPSPSLEDAKLRRPMVIEIIEKNFDYLRKEMTQNIYQMATFGTTAGFSGIFSNFLFRRCFKVKHDALKTYASLATLPFLSTVVTDKLFVIDALYSDNISKENCVFRSSLIGIVCGVFYPSSLAFTKNGRLATKYHTVPLPPKGRVLIHWMTLCQTQMKLMAIPLVFQIMFGILNGLYHYAVFEETLEKTIHEE [TMEM126B]", -0.0998],
  ["MAPLDLDKYVEIARLCKYLPENDLKRLCDYVCDLLLEESNVQPVSTPVTVCGDIHGQFYDLCELFRTGGQVPDTNYIFMGDFVDRGYYSLETFTYLLALKAKWPDRITLLRGNHESRQITQVYGFYDECQTKYGNANAWRYCTKVFDMLTVAALIDEQILCVHGGLSPDIKTLDQIRTIERNQEIPHKGAFCDLVWSDPEDVDTWAISPRGAGWLFGAKVTNEFVHINNLKLICRAHQLVHEGYKFMFDEKLVTVWSAPNYCYRCGNIASIMVFKDVNTREPKLFRAVPDSERVIPPRTTTPYFL [PPP6C]", -0.00442],
  ["MWLWEDQGGLLGPFSFLLLVLLLVTRSPVNACLLTGSLFVLLRVFSFEPVPSCRALQVLKPRDRISAIAHRGGSHDAPENTLAAIRQAAKNGATGVELDIEFTSDGIPVLMHDNTVDRTTDGTGRLCDLTFEQIRKLNPAANHRLRNDFPDEKIPTLREAVAECLNHNLTIFFDVKGHAHKATEALKKMYMEFPQLYNNSVVCSFLPEVIYKMRQTDRDVITALTHRPWSLSHTGDGKPRYDTFWKHFIFVMMDILLDWSMHNILWYLCGISAFLMQKDFVSPAYLKKWSAKGIQVVGWTVNTFDEKSYYESHLGSSYITDSMVEDCEPHF [GDE1]", 0.138]
]}
